Tested on: Zika virus NS2B-NS3 protease (unlinked)
Assay: Optimization of GU AMC qHTS for Zika virus inhibitors: Unlinked NS2B-NS3 protease assay (AID 1347151); also: nearly all actives have a fitted effect of over 80% in size
Settings: recombinant ZIKV NS2B-NS3 protease, fluorogenic AMC substrate; series mostly up to 52.5 µM
Records with an inconclusive call do not appear. The source made the active and inactive calls. Calls follow the shape of the dose curve; as a rule, active = well fitted inhibition curve with a large enough effect; inconclusive = small, poorly fitted or top-dose-only effect; inactive = no such curve, though single readings can be large or run the other way.
Hi there, use one of these labels in your reply, thanks! 1.0 (active), 0.0 (inactive)

Recorded results for 5 compounds are shown here.
CC(C)C[C@H]1C(=O)N2CCC[C@H]2[C@]2(O)O[C@](NC(=O)[C@@H]3C=C4c5cccc6[nH]c(Br)c(c56)C[C@H]4N(C)C3)(C(C)C)C(=O)N12 ... 1.0
Nc1cc(Cl)c(NC2=NCCN2)c(Cl)c1 ... 0.0
CC(C)COC(=O)OCN1C(=O)CN(CCN2CC(=O)N(COC(=O)OCC(C)C)C(=O)C2)CC1=O ... 0.0
O=C(O)c1cc2cc(Cc3cccnc3)ccc2o1 ... 0.0
CC(C)(C)CC(C)(C)c1ccc(OCCOCC[N+](C)(C)Cc2ccccc2)cc1 ... 0.0

Please indicate how the test categorized `CC[C@H](C)C(=O)O[C@H]1CCC=C2C=C[C@H](C)[C@H](CC[C@@H]3C[C@@H](O)CC(=O)O3)[C@H]21` .
0.0

Would you kindly repeat that for `COc1cc2c(cc1O)CC[C@@H]1[C@@H]2CC[C@]2(C)[C@@H](O)CC[C@@H]12` ?
0.0

Would you kindly repeat that for CNCCC(Oc1ccccc1C)c1ccccc1 (centres undefined) ?
0.0

Would you kindly repeat that for `COC(=O)[C@H]1[C@H]2C[C@H]3c4[nH]c5ccccc5c4CCN3C[C@H]2CC[C@@H]1O` ?
0.0

----------
Test system: PAD
Experiment: qHTS profiling for inhibitors of Plasmodium falciparum proliferation (AID 504749); also: nearly all actives have a fitted effect of over 60% in size
Conditions: P. falciparum in erythrocytes, SYBR Green DNA, 72 h; series mostly up to 28.7 µM
Results filed as inconclusive are left out. Activity calls are given as the source filed them. Calls follow the shape of the dose curve; as a rule, active = well fitted inhibition curve with a large enough effect; inconclusive = small, poorly fitted or top-dose-only effect; inactive = flat fitted curve, though single readings scatter.
Hi there, use one of these labels in your reply, thanks! active, inactive

Recorded results for 4 molecules are shown here.
N[C@@H](Cc1cnc[nH]1)C(=O)O ... inactive
Nc1ccc(C(=O)Nc2ccccc2N)cc1 ... inactive
COc1c(C)c2c(c(O)c1C/C=C(\C)CCC(=O)O)C(=O)OC2 ... active
CCCCOc1ccc(OCCCN2CCOCC2)cc1 ... inactive

Please indicate how the test categorized `O=C1[C@H]2CCCC[C@H]2C(=O)N1CCCCN1CCN(c2nsc3ccccc23)CC1` .
inactive

Would you kindly repeat that for C[C@H]1[C@H](NC(=O)/C(=N/OC(C)(C)C(=O)O)c2csc(N)n2)C(=O)N1S(=O)(=O)O (stereo in doubt) ?
inactive

Would you kindly repeat that for `CCN1CCN(c2cc3c(cc2F)c(=O)c(C(=O)O)cn3C2CC2)CC1` ?
inactive

----------
Biological target: Nuclear receptor ROR-gamma (Homo sapiens)
Assay: qHTS assay for small molecule antagonists of the retinoid-related orphan receptor gamma (ROR-gamma) signaling pathway (AID 651802); also: nearly all actives have a fitted effect of over 60% in size
Details: ROR-gamma antagonist cell reporter assay; series mostly up to 92.2 µM
Results filed as inconclusive are left out. The source made the active and inactive calls. Calls come from the whole dose curve; as a rule, active = well fitted inhibition curve with a large enough effect; inconclusive = small, poorly fitted or top-dose-only effect; inactive = no such curve, though single readings can be large or run the other way. Numbered stars: 1 amine (or outer) side, 2 acyl side, 3 side chain; on linkers, the order of the positions; unused ones are H or OH. Bridge positions count the residues as written; N and C are the ends. Square brackets hold non-standard residues; d marks the D form. Peptide text beside a SMILES is read from it. I, II: the chains in the order shown. Actinocin(9to1) = Cc1c2oc3c(C)ccc(C(=O)[*:1])c3nc-2c(C(=O)[*:2])c(N)c1=O; NMeV = CN[C@H](C(=O)O)C(C)C; Sar = CNCC(=O)O
Hi there, use one of these labels in your reply, thanks! 1 (yes) for active, 0 (no) for inactive

Recorded results for 5 compounds are shown here.
Nc1ccc(C(=O)O)cc1 ... 0 (no)
CN(C)/N=N/c1nc[nH]c1C(N)=O ... 0 (no)
Oc1ccc(O)cc1 ... 1 (yes)
CC(O)C(=O)O (stereo unspecified) ... 0 (no)
Cc1c2oc3c(C)ccc(C(=O)N[C@@H]4C(=O)N[C@H](C(C)C)C(=O)N5CCC[C@H]5C(=O)N(C)CC(=O)N(C)[C@@H](C(C)C)C(=O)O[C@@H]4C)c3nc-2c(C(=O)N[C@@H]2C(=O)N[C@H](C(C)C)C(=O)N3CCC[C@H]3C(=O)N(C)CC(=O)N(C)[C@@H](C(C)C)C(=O)O[C@@H]2C)c(N)c1=O (I: T[dV]P[Sar][NMeV] / II: T[dV]P[Sar][NMeV]; ester I:1-I:C, II:1-II:C; linker I:N-II:N via Actinocin(9to1)) ... 1 (yes)

Next compound, please.
Please indicate how the test categorized `C=CCc1ccc(O)c(OC)c1` .
0 (no)
